The following compounds are shown together with reported IC50 values.
Tgt: Glutamate [NMDA] receptor
Measurement Description: Tested in vitro for the affinity against NMDA receptor by examining its ability to inhibit [3H]-CGS-19,755 binding
Assay type: protein-complex assay
State the answer as a number, implicitly in nM.

Worked set:
INSERT INTO assay_data (compound, measurement) VALUES
  ('O=C(O)C1CN(Cc2nn[nH]n2)CCN1 (configuration not stated)', 1670),
  ('N[C@H](CCc1nnn[nH]1)C(=O)O', 925),
  ('Cl.NC(CCCCc1nnn[nH]1)C(=O)O (configuration not stated)', 10000),
  ('O=C(O)C1CN(CCCc2nnn[nH]2)CCN1 (configuration not stated)', 3150),
  ('Cl.NC(CCCc1nnn[nH]1)C(=O)O (configuration not stated)', 1050),
  ('O=C(O)[C@H]1C[C@@H](Cc2nnn[nH]2)CCN1', 107),
  ('N[C@@H](CCc1nnn[nH]1)C(=O)O', 1600),
  ('N[C@H](Cc1nnn[nH]1)C(=O)O', 685),
  ('N[C@H](CCCCCP(=O)(O)O)C(=O)O', 461),
  ('N[C@@H](Cc1nnn[nH]1)C(=O)O', 639);

For the next question, use this compound.
compound O=C(O)C1CN(CCCP(=O)(O)O)CCN1 (configuration not stated) , IC50 observed: 220

----------
Recorded IC50 for the following compounds
Tgt: Glutamate [NMDA] receptor
Measurement Description: Tested in vitro for the affinity against NMDA receptor in a cortical wedge assay
Type: protein-complex assay

INSERT INTO assay_data (compound, measurement) VALUES
  ('O=C(O)C1CN(CCc2nnn[nH]2)CCN1 (stereo not drawn)', '4.7 µM'),
  ('NC(CCCCCc1nnn[nH]1)C(=O)O (stereo not drawn)', '> 100 µM'),
  ('N[C@H](CCCP(=O)(O)O)C(=O)O', '3.7 µM'),
  ('O=C(O)[C@H]1C[C@@H](Cc2nnn[nH]2)CCN1', '4.2 µM'),
  ('O=C(O)[C@@H]1C[C@H](CP(=O)(O)O)CCN1 (single isomer, unassigned)', '1.6 µM'),
  ('N[C@H](Cc1nnn[nH]1)C(=O)O', '> 100 µM'),
  ('Cl.NC(CCCCCCc1nnn[nH]1)C(=O)O (stereo not drawn)', '> 100 µM'),
  ('O=C(O)C1CN(Cc2nn[nH]n2)CCN1 (stereo not drawn)', '8.2 µM'),
  ('N[C@H](CCCCCP(=O)(O)O)C(=O)O', '11.1 µM'),
  ('N[C@@H](Cc1nnn[nH]1)C(=O)O', '> 100 µM');

Entry under test: O=C(O)C1CN(CCCP(=O)(O)O)CCN1 (stereo not drawn) . Its IC50 was 0.6 µM

Query O=C(O)C1CN(CCCc2nnn[nH]2)CCN1 (stereo not drawn) yields IC50 of 16.3 µM

Form field IC50, entry N[C@H](CCc1nnn[nH]1)C(=O)O : 31.6 µM

----------
Tgt: Glutamate [NMDA] receptor
Measurement Description: Tested in vitro for the affinity against NMDA receptor by examining its ability to inhibit [3H]-CGS-19,755 binding
Type: protein-complex assay
Quantity Name: pIC50
Answer as the number alone; pIC50 is minus log10 of concentration in mol/L.

The cases that follow already have their pIC50 on record.
INSERT INTO assay_data (compound, tgt, measurement) VALUES
  ('O=C(O)[C@@H]1C[C@H](CP(=O)(O)O)CCN1 (single isomer, unassigned)', 'Glutamate [NMDA] receptor', 7.27),
  ('O=C(O)C1CN(CCc2nnn[nH]2)CCN1 (stereo unspecified)', 'Glutamate [NMDA] receptor', 6.11);

Briefly, pIC50 measured for N[C@H](CCCP(=O)(O)O)C(=O)O : 6.75
